Hello, the source for this data is paper PMC6099706, in case you need it.

- Test system: M. tb H37Rv RR (rifampicin resistant)
- protocol_text: microbe, parasite or virus in culture
- Type: cell-based
- condition: Mycobacterium tuberculosis

{"molecule": "COC(=O)c1ccc2c(c1)[n+]([O-])c(C(=O)c1ccccc1)c(C(F)(F)F)[n+]2[O-]", "tgt": "M. tb H37Rv RR (rifampicin resistant)", "MIC": "0.625 mg/L"}
{"molecule": "CC(C)OC(=O)c1ccc2c(c1)[n+]([O-])c(C(=O)c1cccs1)c(C(F)(F)F)[n+]2[O-]", "tgt": "M. tb H37Rv RR (rifampicin resistant)", "MIC": "1.25 mg/L"}
{"molecule": "CCOC(=O)c1ccc2c(c1)[n+]([O-])c(C(=O)c1cccs1)c(C(F)(F)F)[n+]2[O-]", "tgt": "M. tb H37Rv RR (rifampicin resistant)", "MIC": "< 0.31 mg/L"}
{"molecule": "CCOC(=O)c1ccc2c(c1)[n+]([O-])c(C(C)=O)c(C(F)(F)F)[n+]2[O-]", "tgt": "M. tb H37Rv RR (rifampicin resistant)", "MIC": "1.25 mg/L"}
{"molecule": "COC(=O)c1ccc2c(c1)[n+]([O-])c(C(=O)OC)c(C)[n+]2[O-]", "tgt": "M. tb H37Rv RR (rifampicin resistant)", "MIC": "< 0.31 mg/L"}
{"molecule": "CC(C)OC(=O)c1ccc2c(c1)[n+]([O-])c(C(=O)C(C)C)c(C(F)(F)F)[n+]2[O-]", "tgt": "M. tb H37Rv RR (rifampicin resistant)", "MIC": "0.625 mg/L"}
{"molecule": "CCCOC(=O)c1ccc2c(c1)[n+]([O-])c(C(=O)OC)c(C)[n+]2[O-]", "tgt": "M. tb H37Rv RR (rifampicin resistant)", "MIC": "< 0.31 mg/L"}
{"molecule": "CCCOC(=O)c1ccc2c(c1)[n+]([O-])c(C(=O)c1cccs1)c(C(F)(F)F)[n+]2[O-]", "tgt": "M. tb H37Rv RR (rifampicin resistant)", "MIC": "1.25 mg/L"}
{"molecule": "CO[C@H]1/C=C/O[C@@]2(C)Oc3c(C)c(O)c4c(O)c(c(/C=N/N5CCN(C)CC5)c(O)c4c3C2=O)NC(=O)/C(C)=C\\C=C\\[C@H](C)[C@H](O)[C@@H](C)[C@@H](O)[C@@H](C)[C@H](OC(C)=O)[C@@H]1C [RMP, rifampicin, reference compound]", "tgt": "M. tb H37Rv RR (rifampicin resistant)", "MIC": "> 2 mg/L"}
